- experiment.notes: Elimination half-life of the active ingredient in man
- measurement.context: human, in vivo

molecule	half-life
CC(=O)Nc1ccc(C2=NNC(=O)CC2C)cc1 (stereo not shown)	~72 h

----------
- experiment.notes: Plasma concentrations following 24 h levosimendan infusion in heart failure patients
- Type: in vivo, human
- measurement.context: human, plasma, intravenous, 0.2 ug/kg, levosimendan 0.2 μg/kg/min for 24 hours, FIG. 1, read-out: elimination half-life (converted)
half-life values for the compounds below.
measurement.name: half-life

compound	result
C[C@@H]1CC(=O)NN=C1c1ccc(NN=C(C#N)C#N)cc1 [levosimendan]	~1.3 h
CC(=O)Nc1ccc(C2=NNC(=O)C[C@H]2C)cc1 [OR-1896]	~77 h

Source of measurements: patent US20040180895A1
